tgt: human LXRβ (Homo sapiens)
Sequence (P55055 222-460 limits assumed): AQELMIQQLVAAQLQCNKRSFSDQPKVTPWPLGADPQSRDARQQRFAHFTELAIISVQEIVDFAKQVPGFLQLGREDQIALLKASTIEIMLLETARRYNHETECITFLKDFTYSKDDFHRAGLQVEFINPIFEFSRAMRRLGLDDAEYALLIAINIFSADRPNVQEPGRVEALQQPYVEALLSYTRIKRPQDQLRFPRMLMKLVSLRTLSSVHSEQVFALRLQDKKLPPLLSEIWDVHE
assayMethodText: Assay for Transcriptional Activity of LXRβ (GAL4-hLXRβ LBD luciferase reporter, transient transfection)
assayConditions: increase of transcriptional activity of LXRβ; HEK293 cells transfected with pFA-hLXRβ/GAL4 and pUAS; 24 hours; average of three independent tests
This section presents compounds with their documented pEC50 values.
// pEC50 is dimensionless: -log10 of concentration (M)

Some compounds with recorded pEC50:
OC(C1=NN(c2ccccc2Cl)C(c2ccc(-c3cccc(OC(F)(F)F)c3)cc2)C1)(C(F)(F)F)C(F)(F)F (stereo not shown) [Example 248] | 5.61
COc1ncc(-c2ccc(C3CC(C(O)(C(F)(F)F)C(F)(F)F)=NN3c3ccccc3Cl)cc2)cn1 (stereo not shown) [Example 279] | 6.03
CN(C)S(=O)(=O)c1ccc(-c2ccc(C3CC(C(O)(C(F)(F)F)C(F)(F)F)=NN3c3ccc(F)cc3F)cc2)cc1 (stereo not shown) [Example 396] | 6.84

Now take the following compound into account.
Return reported pEC50; argument: CSc1ccc(-c2ccc(C3CC(C(O)(C(F)(F)F)C(F)(F)F)=NN3c3ccccc3Cl)s2)cn1 (stereo not shown) [Example 415] 6.46

----------
This section presents compounds with their documented log10 Emax values.
tgt: human LXRβ (Homo sapiens, UniProt P55055)
Construct: expressed in transfected cells; host or cells: HEK293 cells (ATCC CRL-1573), transient transfection with pFA-hLXRβ/GAL4 and pUAS
assayMethodText: Assay for Transcriptional Activity of LXRβ (GAL4-hLXRβ LBD luciferase reporter, transient transfection)
Type: cell-based
assayConditions: fold value in comparison with the control (DMSO-treated group); HEK293 cells transfected with pFA-hLXRβ/GAL4 and pUAS; 24 hours
Field: value | Transform: log10 | Quantity: Emax | Unit: fold

Some compounds with recorded log10 Emax:
O=C(c1ccccc1)N1CC=C(c2cccc(C3CC(C(O)(C(F)(F)F)C(F)(F)F)=NN3c3ccccc3Cl)c2)CC1 (stereo not shown) | 1.80
CS(=O)(=O)c1cccc(-c2cccc(N3N=C(C(O)(C(F)(F)F)C(F)(F)F)CC3c3ccccc3Cl)c2)c1 (stereo not shown) | 1.48
OC(C1=NN(c2ccc(F)cc2F)C(c2ccc(-c3ccc(C(F)(F)F)nc3)cc2)C1)(C(F)(F)F)C(F)(F)F (stereo not shown) | 1.18
CS(=O)(=O)c1ccc(-c2ccc(C3CC(C(O)(C(F)(F)F)C(F)(F)F)=NN3c3ccccc3Cl)cc2)cc1C#N (stereo not shown) | 1.46

Return reported log10 Emax; argument: CS(=O)(=O)c1ccc(-c2cccc(N3N=C(C(O)(C(F)(F)F)C(F)(F)F)CC3c3ccccc3Cl)c2)cn1 (stereo not shown) 1.40

Proceed to CSc1cccc(-c2ccc(F)c(C3CC(C(F)(F)C(F)(F)F)=NN3c3ccc(F)cc3F)c2)c1 (stereo not shown) 2.18

Proceed to CS(=O)(=O)c1cccc(-c2ccc(C3CC(C(O)(C(F)(F)F)C(F)(F)F)=NN3c3ccccc3Cl)c(F)c2)c1 (stereo not shown) 1.79

Proceed to O=C(CCC1CCCC1)N1CC=C(c2cccc(C3CC(C(O)(C(F)(F)F)C(F)(F)F)=NN3c3ccccc3Cl)c2)CC1 (stereo not shown) 1.86

Proceed to COc1ccc(-c2cc(C3CC(C(F)(F)C(F)(F)F)=NN3c3ccc(F)cc3F)ccc2F)cn1 (stereo not shown) 1.65

Proceed to CS(=O)(=O)c1c(F)cc(-c2ccc(C3CC(C(O)(C(F)(F)F)C(F)(F)F)=NN3c3ccc(F)cc3F)cc2)cc1F (stereo not shown) 1.40

Proceed to COc1ncccc1-c1cccc(C2CC(C(F)(F)C(F)(F)F)=NN2c2ccc(F)cc2F)c1 (stereo not shown) 1.80

Proceed to CNCCCS(=O)(=O)c1cccc(-c2ccc(C3CC(C(O)(C(F)(F)F)C(F)(F)F)=NN3c3ccccc3Cl)cc2)c1 (stereo not shown) 2.01

Proceed to CN(C)C(=O)N1CC=C(c2cccc(C3CC(C(F)(F)C(F)(F)F)=NN3c3ccc(F)cc3F)c2)CC1 (stereo not shown) 1.68

Proceed to COc1ccc(-c2cccc(C3CC(C(F)(F)C(F)(F)F)=NN3c3ccccc3Cl)c2)cc1OC (stereo not shown) 1.76

Proceed to OC(C1=NN(c2ccccc2Cl)C(c2ccc(-c3cc4ccccc4o3)cc2)C1)(C(F)(F)F)C(F)(F)F (stereo not shown) 1.96

Proceed to CC(C)(C)OC(=O)N1CC=C(c2cccc(C3CC(C(O)(C(F)(F)F)C(F)(F)F)=NN3c3ccccc3Cl)c2)CC1 (stereo not shown) 2.10

Proceed to Cl.OC(C1=NN(c2ccccc2Cl)C(c2ccc(C3=CCNCC3)s2)C1)(C(F)(F)F)C(F)(F)F (stereo not shown) 1.76

Proceed to O=C(c1ccc(Cl)cc1)N1CC=C(c2cccc(C3CC(C(O)(C(F)(F)F)C(F)(F)F)=NN3c3ccccc3Cl)c2)CC1 (stereo not shown) 1.91

Proceed to CCS(=O)(=O)N1CCCN(c2ccc(C3CC(C(O)(C(F)(F)F)C(F)(F)F)=NN3c3ccccc3Cl)cc2)CC1 (stereo not shown) 1.73

Proceed to CS(=O)(=O)c1ccc(-c2ccnc(C3CC(C(F)(F)C(F)(F)F)=NN3c3ccc(F)cc3F)c2)cn1 (stereo not shown) 1.91

Proceed to CC(C)(O)C(=O)N1CCN(c2ccc(C3CC(C(O)(C(F)(F)F)C(F)(F)F)=NN3c3ccccc3Cl)cc2)CC1 (stereo not shown) 1.23

Proceed to CS(=O)(=O)c1cccc(-c2cccc(N3N=C(C(F)(F)C(F)(F)F)CC3c3ccc(F)cc3F)c2)c1 (stereo not shown) 1.94

Proceed to CCCS(=O)(=O)N1CC=C(c2ccc(C3CC(C(O)(C(F)(F)F)C(F)(F)F)=NN3c3ccccc3Cl)cc2)CC1 (stereo not shown) 1.72

Proceed to CS(=O)(=O)c1cccc(-c2ccc(C3CC(C(O)(C(F)(F)F)C(F)(F)F)=NN3c3ccccc3Cl)cc2)n1 (stereo not shown) 1.56

Proceed to OC(C1=NN(c2ccccc2Cl)C(c2ccc(-c3cc4ccccc4s3)cc2)C1)(C(F)(F)F)C(F)(F)F (stereo not shown) 1.86

Proceed to CS(=O)(=O)N1CC=C(c2cc(C3CC(C(F)(F)C(F)(F)F)=NN3c3ccc(F)cc3F)ccn2)CC1 (stereo not shown) 1.70

Proceed to CS(=O)(=O)c1ccc(-c2cccc(C3CC(C(F)(F)C(F)(F)F)=NN3c3ccc(Cl)cc3F)c2)cc1 (stereo not shown) 1.79

Proceed to CS(=O)(=O)c1cccc(-c2cccc(N3N=C(C(F)(F)C(F)(F)F)CC3c3ccc(F)cc3F)c2)n1 (stereo not shown) 1.34

----------
tgt: human LXRβ (Homo sapiens)
Construct: expressed in transfected cells; host or cells: HEK293 cells (ATCC CRL-1573), transient transfection with pFA-hLXRβ/GAL4 and pUAS
Sequence (P55055 222-460 limits assumed): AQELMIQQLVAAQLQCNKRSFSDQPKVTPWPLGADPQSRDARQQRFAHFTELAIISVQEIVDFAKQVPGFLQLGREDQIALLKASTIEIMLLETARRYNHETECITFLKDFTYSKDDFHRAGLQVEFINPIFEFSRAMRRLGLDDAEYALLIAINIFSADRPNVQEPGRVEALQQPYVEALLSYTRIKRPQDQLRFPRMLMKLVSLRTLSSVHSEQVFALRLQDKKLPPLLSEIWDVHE
assayMethodText: Assay for Transcriptional Activity of LXRβ (GAL4-hLXRβ LBD luciferase reporter, transient transfection)
Format: cell-based
assayConditions: fold value in comparison with the control (DMSO-treated group); HEK293 cells transfected with pFA-hLXRβ/GAL4 and pUAS; 24 hours
outcomeMeasure: Emax (fold)
Use fold as the unit, but write only the number.

Some compounds with recorded Emax:
CS(=O)(=O)N1CC=C(c2ccc(C3CC(C(O)(C(F)(F)F)C(F)(F)F)=NN3c3ccccc3Cl)cn2)CC1 (stereo not shown) [Example 358] | 90
CS(=O)(=O)c1cccc(-c2ccc(C3CC(C(F)(F)C(F)(F)F)=NN3c3ccccc3Cl)cc2)c1 (stereo not shown) [Example 5] | 48

Return reported Emax; argument: CC(O)c1ccc(-c2cccc(C3CC(C(F)(F)C(F)(F)F)=NN3c3ccccc3Cl)c2)cc1 (stereo not shown) [Example 108] 44

----------
This section presents molecules with their documented pEC50 values.
tgt: human LXRβ (Homo sapiens, UniProt P55055)
assayMethodText: Assay for Transcriptional Activity of LXRβ (GAL4-hLXRβ LBD luciferase reporter, transient transfection)
assayConditions: increase of transcriptional activity of LXRβ; HEK293 cells transfected with pFA-hLXRβ/GAL4 and pUAS; 24 hours; average of three independent tests
// pEC50 is dimensionless: -log10 of concentration (M)

CN(CCCS(=O)(=O)c1ccc(-c2cccc(C3CC(C(F)(F)C(F)(F)F)=NN3c3ccc(F)cc3F)c2)cc1)C(=O)OC(C)(C)C (stereo not shown) | 6.02
CSc1cccc(-c2ccc(F)c(C3CC(C(F)(F)C(F)(F)F)=NN3c3ccc(F)cc3F)c2)c1 (stereo not shown) | 6.30

Now take the following molecule into account.
Return reported pEC50; argument: CN(C)C(=O)N1CC=C(c2cccc(C3CC(C(F)(F)C(F)(F)F)=NN3c3ccc(F)cc3F)c2)CC1 (stereo not shown) 5.89
